Biological target: HLA-B*0702 (human)
Assay: competition vs 125I-labeled standard peptide, purified HLA
experimental endpoint: IC50
Could you write the number and then its unit?

MPYGCLLDHVI (11-mer analog of the HER2/neu peptide starting at position 801) [Her2/neu.801.I11] | 66 nM
FPIKWMAI (8-mer analog of the HER2/neu peptide starting at position 884) [Her2/neu.884.F1I8] | 22 nM
FPYDGIPA (8-mer analog of the HER2/neu peptide starting at position 921) [Her2/neu.921.F1] | 423 nM
FPYDGIPI (8-mer analog of the HER2/neu peptide starting at position 921) [Her2/neu.921.F1I8] | 177 nM
FPAEQRASPL (10-mer analog of the HER2/neu peptide starting at position 642) [Her2/neu.642.F1] | 1.4 nM
FPLTPSGAI (9-mer analog of the HER2/neu peptide starting at position 698) [Her2/neu.698.F1I9] | 0.9 nM

Input line: Which IC50 value is on record for SPLTSIISAV (10-mer native HER2/neu peptide starting at position 649) [Her2/neu.649, 10-mer] ?
Output line: 61 nM

Input line: Then FPNQAQMRII (10-mer analog of the HER2/neu peptide starting at position 706) [Her2/neu.706.F1I10] ?
Output line: 290 nM
